# settings: 60 min, pH 7.5
experimental-readout: Concentration of Darolutamide in saturated solution (µg/mL)
Your answer should be a plain number; it is taken to be in µg/mL.

Worked examples follow.
CC(O)c1cc(C(=O)N[C@@H](C)Cn2ccc(-c3ccc(C#N)c(Cl)c3)n2)[nH]n1 (some centres unmarked) [Comparative example 2, darolutamide]    21
CC(O)c1cc(C(=O)N[C@@H](C)Cn2ccc(-c3ccc(C#N)c(Cl)c3)n2)[nH]n1 (single isomer, unassigned) [Example 3, darolutamide]    132
CC(O)c1cc(C(=O)N[C@@H](C)Cn2ccc(-c3ccc(C#N)c(Cl)c3)n2)[nH]n1 (some centres unmarked) [Comparative example 1a, darolutamide]    19
CC(O)c1cc(C(=O)N[C@@H](C)Cn2ccc(-c3ccc(C#N)c(Cl)c3)n2)[nH]n1 (single isomer, unassigned) [Example 5, darolutamide]    109

Form field: reported Concentration of Darolutamide in saturated solution of CC(O)c1cc(C(=O)N[C@@H](C)Cn2ccc(-c3ccc(C#N)c(Cl)c3)n2)[nH]n1 (single isomer, unassigned) [Example 4, darolutamide] 109

* * *

Concentration of Darolutamide in saturated solution for assorted compounds
# settings: 60 min, pH 1
Your answer should be a plain number; it is taken to be in µg/mL.

Worked examples follow.
CC(O)c1cc(C(=O)N[C@@H](C)Cn2ccc(-c3ccc(C#N)c(Cl)c3)n2)[nH]n1 (single isomer, unassigned) [Example 3, darolutamide]    117
CC(O)c1cc(C(=O)N[C@@H](C)Cn2ccc(-c3ccc(C#N)c(Cl)c3)n2)[nH]n1 (some centres unmarked) [Comparative example 2, darolutamide]    22
CC(O)c1cc(C(=O)N[C@@H](C)Cn2ccc(-c3ccc(C#N)c(Cl)c3)n2)[nH]n1 (some centres unmarked) [Comparative example 1a, darolutamide]    17
CC(O)c1cc(C(=O)N[C@@H](C)Cn2ccc(-c3ccc(C#N)c(Cl)c3)n2)[nH]n1 (single isomer, unassigned) [Example 4, darolutamide]    113

API: the following record is the query input.
Form field: reported Concentration of Darolutamide in saturated solution of CC(O)c1cc(C(=O)N[C@@H](C)Cn2ccc(-c3ccc(C#N)c(Cl)c3)n2)[nH]n1 (single isomer, unassigned) [Example 5, darolutamide] 113

* * *

Concentration of Darolutamide in saturated solution for assorted compounds
# settings: 0 min, pH 1
Your answer should be a plain number; it is taken to be in ng/mL.

Form field: reported Concentration of Darolutamide in saturated solution of CC(O)c1cc(C(=O)N[C@@H](C)Cn2ccc(-c3ccc(C#N)c(Cl)c3)n2)[nH]n1 (single isomer, unassigned) [Example 3, darolutamide] 0

Form field: reported Concentration of Darolutamide in saturated solution of CC(O)c1cc(C(=O)N[C@@H](C)Cn2ccc(-c3ccc(C#N)c(Cl)c3)n2)[nH]n1 (some centres unmarked) [Comparative example 2, darolutamide] 0

Form field: reported Concentration of Darolutamide in saturated solution of CC(O)c1cc(C(=O)N[C@@H](C)Cn2ccc(-c3ccc(C#N)c(Cl)c3)n2)[nH]n1 (single isomer, unassigned) [Example 5, darolutamide] 0

Form field: reported Concentration of Darolutamide in saturated solution of CC(O)c1cc(C(=O)N[C@@H](C)Cn2ccc(-c3ccc(C#N)c(Cl)c3)n2)[nH]n1 (some centres unmarked) [Comparative example 1a, darolutamide] 0

Form field: reported Concentration of Darolutamide in saturated solution of CC(O)c1cc(C(=O)N[C@@H](C)Cn2ccc(-c3ccc(C#N)c(Cl)c3)n2)[nH]n1 (single isomer, unassigned) [Example 4, darolutamide] 0
